molecular target: citrate synthase
measured-attribute: Citrate Synthase Inactivation, CS t1/2
Give the figure together with its unit, number first.

DsbC (enzyme, Escherichia coli, UniProt P0AEG6 21-236, looked up, also called wild-type DsbC) DDAAIQQTLAKMGIKSSDIQPAPVAGMKTVLTNSGVLYITDDGKHIIQGPMYDVSGTAPVNVTNKMLLKQLNALEKEMIVYKAPQEKHVITVFTDITCGYCHKLHEQMADYNALGITVRYLAFPRQGLDSDAEKEMKAIWCAKDKNKAFDDVMAGKSVAPASCDVDIADHYALGVQLGVSGTPAVVLSNGTLVPGYQPPKEMKEFLDEHQKMTSGK: 3.15 min
FkpA-DsbA3 (protein) AEAAKPATAADSKAAFKNDDQKSAYALGASLGRYMENSLKEQEKLGIKLDKDQLIAGVQDAFADKSKLSDQEIEQTLQAFEARVKSSAQAKMEKDAADNEAKGKEYREKFAKEKYEDGKQYTTLEKPVAGAPQVLEFFSFFCPHCYQFEEVLHISDNVKKKLPEGVKMTKYHVNFMGGDLGKDLTQAWAVAMALGVEDKVTVPLFEGVQKTQTIRSASDIRDVFINAGIKGEEYDAAWNSFVVKSLVAQQEKAAADVQLRGVPAMFVNGKYQLNPQGMDTSNMDVFVQQYADTVKYLSEKKHHHHHH: 2.01 min
FkpA-DsbA5 (protein) AEAAKPATAADSKAAFKNDDQKSAYALGASLGRYMENSLKEQEKLGIKLDKDQLIAGVQDAFADKSKLSDQEIEQTLQAFEARVKSSAQAKMEKDAADNEAKGKEYREKFAKEKDGKQYTTLEKPVAGAPQVLEFFSFFCPHCYQFEEVLHISDNVKKKLPEGVKMTKYHVNFMGGDLGKDLTQAWAVAMALGVEDKVTVPLFEGVQKTQTIRSASDIRDVFINAGIKGEEYDAAWNSFVVKSLVAQQEKAAADVQLRGVPAMFVNGKYQLNPQGMDTSNMDVFVQQYADTVKYLSEKKHHHHHH: 2.71 min
FkpA-DsbA2 (protein) AEAAKPATAADSKAAFKNDDQKSAYALGASLGRYMENSLKEQEKLGIKLDKDQLIAGVQDAFADKSKLSDQEIEQTLQAFEARVKSSAQAKMEKDAADNEAKGKEYREKFAKEKQYEDGKQYTTLEKPVAGAPQVLEFFSFFCPHCYQFEEVLHISDNVKKKLPEGVKMTKYHVNFMGGDLGKDLTQAWAVAMALGVEDKVTVPLFEGVQKTQTIRSASDIRDVFINAGIKGEEYDAAWNSFVVKSLVAQQEKAAADVQLRGVPAMFVNGKYQLNPQGMDTSNMDVFVQQYADTVKYLSEKKHHHHHH: 2.46 min

Entry FkpA-DsbA4 (protein) AEAAKPATAADSKAAFKNDDQKSAYALGASLGRYMENSLKEQEKLGIKLDKDQLIAGVQDAFADKSKLSDQEIEQTLQAFEARVKSSAQAKMEKDAADNEAKGKEYREKFAKEKEDGKQYTTLEKPVAGAPQVLEFFSFFCPHCYQFEEVLHISDNVKKKLPEGVKMTKYHVNFMGGDLGKDLTQAWAVAMALGVEDKVTVPLFEGVQKTQTIRSASDIRDVFINAGIKGEEYDAAWNSFVVKSLVAQQEKAAADVQLRGVPAMFVNGKYQLNPQGMDTSNMDVFVQQYADTVKYLSEKKHHHHHH , Citrate Synthase Inactivation, CS t1/2 reported as 3.82 min
